Recorded T/C values for a group of compounds are listed next.
# Tested on: P388 leukemia ip, CD2F1 mice, survival T/C
# protocol-notes: NCI In Vivo Anticancer Drug Screen. Data for tumor model P388 Leukemia (intraperitoneal) in CD2F1 (CDF1) mice
# study-conditions: endpoint: median survival time; dose: 50.0 mg/kg/injection; schedule: Q01DX005 (ip); vehicle: saline with Tween-80; higher = longer survival
Toxic doses and inconclusive results are not listed.

The following compounds have reported results that may help.
{"compound": "Cc1ccnc(Nc2nnc(Nc3cc(C)ccn3)c3ccccc23)c1", "study-target": "P388 leukemia ip, CD2F1 mice, survival T/C", "property-label": "T/C", "data-value": "100 % of control"}
{"compound": "O=C1/C(=C\\c2ccc3c(c2)OCO3)SC(=S)N1CCCN1CCOCC1", "study-target": "P388 leukemia ip, CD2F1 mice, survival T/C", "property-label": "T/C", "data-value": "92 % of control"}
{"compound": "C1CCN(P2(N3CCCCC3)=NP(N3CCCCC3)(N3CCCCC3)=NP(N3CCCCC3)(N3CCCCC3)=NP(N3CCCCC3)(N3CCCCC3)=N2)CC1", "study-target": "P388 leukemia ip, CD2F1 mice, survival T/C", "property-label": "T/C", "data-value": "96 % of control"}
{"compound": "CN1C=CC(C(O)(c2ccccc2)c2ccccc2)CC1 (stereo not given)", "study-target": "P388 leukemia ip, CD2F1 mice, survival T/C", "property-label": "T/C", "data-value": "99 % of control"}

Attention now turns to another entry.
(Q) Consider the compound COc1cc(C(CC#N)CC#N)cc(OC)c1OC . State its measured T/C.
(A) 96 % of control

====

# Test system: P388 leukemia ip, CD2F1 mice, survival T/C
# protocol-notes: NCI In Vivo Anticancer Drug Screen. Data for tumor model P388 Leukemia (intraperitoneal) in CD2F1 (CDF1) mice
# study-conditions: endpoint: median survival time; dose: 200.0 mg/kg/injection; schedule: Q01DX001 (ip); vehicle: saline; higher = longer survival
Inconclusive results and toxic doses are left out.
property-label: T/C

{"compound": "Cc1cc(N2CCOCC2)ccc1N=Nc1nc2ccccc2s1", "T/C": "88 % of control"}
{"compound": "NC1CCC2CCCCC2C1 (stereo not drawn)", "T/C": "104 % of control"}

Attention now turns to another entry.
(Q) Consider the compound COCC1=C(C)CC(C(C)(C)C(=O)OC)C1=O (stereo not drawn) . State its measured T/C.
(A) 101 % of control

====

# Tested on: P388 leukemia ip, CD2F1 mice, survival T/C
# protocol-notes: NCI In Vivo Anticancer Drug Screen. Data for tumor model P388 Leukemia (intraperitoneal) in CD2F1 (CDF1) mice
# study-conditions: endpoint: median survival time; dose: 60.0 mg/kg/injection; schedule: Q01DX005 (ip); vehicle: saline with Tween-80; higher = longer survival
Toxic doses and inconclusive results are not listed.
Recorded T/C values for a group of molecules are listed next.

The following molecules have reported results that may help.
{"molecule": "O=C1CCC(Cc2ccccc2)CN1 (configuration not stated)", "T/C": "97 % of control"}
{"molecule": "COC(=O)c1nnn(-c2cc(Cl)ccc2Cl)c1N", "T/C": "91 % of control"}
{"molecule": "COC(=O)c1nnn(-c2cccc(Cl)c2)c1C(=O)c1ccc(Cl)c(Cl)c1", "T/C": "100 % of control"}
{"molecule": "CC(C)(O)C(=O)N/N=C/c1ccc(Cl)cc1", "T/C": "101 % of control"}
{"molecule": "Cc1cc[n+](C2=C(Nc3ccc(Cl)cc3Cl)C(=O)c3ccccc3C2=O)cc1", "T/C": "99 % of control"}
{"molecule": "N#CC(Nc1ncccn1)c1ccccc1 (configuration not stated)", "T/C": "97 % of control"}

(Q) State measured T/C of the molecule ClCc1nnc2n1-c1ccc(Cl)cc1SC2 with P388 leukemia ip, CD2F1 mice, survival T/C.
(A) 106 % of control

(Q) State measured T/C of the molecule CCCCCc1nnc2n1N=C(c1ccc(Cl)cc1)CS2 with P388 leukemia ip, CD2F1 mice, survival T/C.
(A) 100 % of control

(Q) State measured T/C of the molecule CCOC(=O)CC(SCP(=O)(OCC)OCC)C(=O)OCC (configuration not stated) with P388 leukemia ip, CD2F1 mice, survival T/C.
(A) 101 % of control

(Q) State measured T/C of the molecule CC(=O)OCC1OC([Se-])C(OC(C)=O)C(OC(C)=O)C1OC(C)=O.N#CCC[PH+](CCC#N)CCC#N.[Au+] (configuration not stated) with P388 leukemia ip, CD2F1 mice, survival T/C.
(A) 98 % of control

(Q) State measured T/C of the molecule CCCCC[C@@H]1CC=CC(NC(=O)OCc2ccccc2)C1C=O (some centres not stated) with P388 leukemia ip, CD2F1 mice, survival T/C.
(A) 100 % of control

(Q) State measured T/C of the molecule CC1=NN(c2ccccc2)C(=O)/C1=C\c1ccc([N+](=O)[O-])cc1 with P388 leukemia ip, CD2F1 mice, survival T/C.
(A) 104 % of control

(Q) State measured T/C of the molecule CC1=CC2C3C(=O)NC(=O)C3C1(C)C1C3C(=O)NC(=O)C3C21 (configuration not stated) with P388 leukemia ip, CD2F1 mice, survival T/C.
(A) 100 % of control

(Q) State measured T/C of the molecule C=CCC1(C)C(=O)CCC1=O with P388 leukemia ip, CD2F1 mice, survival T/C.
(A) 110 % of control

(Q) State measured T/C of the molecule Cc1ccc(S(=O)(=O)N/N=C2/C(=O)N(c3ccc(Cl)cc3C)C(=O)C(=O)C2c2nc3ccccc3s2)cc1 (configuration not stated) with P388 leukemia ip, CD2F1 mice, survival T/C.
(A) 98 % of control

(Q) State measured T/C of the molecule Cn1c(C2CCC(=O)N2Cc2ccccc2)n[nH]c1=S (configuration not stated) with P388 leukemia ip, CD2F1 mice, survival T/C.
(A) 101 % of control

(Q) State measured T/C of the molecule CC(=O)CCC1C(=O)N(C)C(=O)c2ccccc21 (configuration not stated) with P388 leukemia ip, CD2F1 mice, survival T/C.
(A) 98 % of control

====

# Test system: P388 leukemia ip, CD2F1 mice, survival T/C
# protocol-notes: NCI In Vivo Anticancer Drug Screen. Data for tumor model P388 Leukemia (intraperitoneal) in CD2F1 (CDF1) mice
# study-conditions: endpoint: median survival time; dose: 200.0 mg/kg/injection; schedule: Q01DX005 (ip); vehicle: Klucel (hydroxypropylcellulose) (HPC); higher = longer survival
Inconclusive results and toxic doses are left out.
Recorded T/C values for a group of compounds are listed next.

The following compounds have reported results that may help.
{"compound": "CCOC(=O)CNC(=O)C(CSSCC(NC(=O)OCc1ccccc1)C(=O)O)NC(=O)OCc1ccccc1 (stereo not drawn)", "T/C": "99 % of control"}
{"compound": "Cc1nc2c(cnn2C)c(=O)n1C", "T/C": "111 % of control"}

Attention now turns to another entry.
(Q) Consider the compound NC(=O)CCC(NS(=O)(=O)c1ccc(NC(=O)c2ccc(Cl)cc2)cc1)C(=O)O (stereo not drawn) . State its measured T/C.
(A) 102 % of control

====

Recorded T/C values for a group of compounds are listed next.
# System: P388 leukemia ip, CD2F1 mice, survival T/C
# protocol-notes: NCI In Vivo Anticancer Drug Screen. Data for tumor model P388 Leukemia (intraperitoneal) in CD2F1 (CDF1) mice
# study-conditions: endpoint: median survival time; dose: 240.0 mg/kg/injection; schedule: Q01DX005 (ip); vehicle: Klucel (hydroxypropylcellulose) (HPC); higher = longer survival
Toxic doses and inconclusive results are not listed.

{"compound": "N#Cc1ccc(OC(=O)Nc2ccc(Br)cc2)cc1", "study-target": "P388 leukemia ip, CD2F1 mice, survival T/C", "data-value": "108 % of control"}
{"compound": "O=C(O)c1cccc(-c2c3ccc(=O)cc-3oc3cc(O)ccc23)c1", "study-target": "P388 leukemia ip, CD2F1 mice, survival T/C", "data-value": "110 % of control"}

Attention now turns to another entry.
(Q) Consider the compound O=C1Nc2ccccc2C(=O)C1(O)c1ccccc1 (stereo not drawn) . State its measured T/C.
(A) 94 % of control

====

# System: P388 leukemia ip, CD2F1 mice, survival T/C
# protocol-notes: NCI In Vivo Anticancer Drug Screen. Data for tumor model P388 Leukemia (intraperitoneal) in CD2F1 (CDF1) mice
# study-conditions: endpoint: median survival time; dose: 12.5 mg/kg/injection; schedule: Q01DX009 (ip); vehicle: saline with Tween-80; higher = longer survival
Inconclusive results and toxic doses are left out.
property-label: T/C

{"molecule": "O=[N+]([O-])/C(=C/c1ccccc1)c1ccccc1", "study-target": "P388 leukemia ip, CD2F1 mice, survival T/C", "data-value": "118 % of control"}
{"molecule": "CN[C@H]1CC[C@]23C[C@]24CC[C@]2(C)[C@@H]([C@H](C)N(C)C)CC[C@@]2(C)[C@@H]4CC[C@H]3C1(C)C", "study-target": "P388 leukemia ip, CD2F1 mice, survival T/C", "data-value": "102 % of control"}

(Q) State measured T/C of the molecule CCOc1ccc2c(N/N=C/c3ccc(N(CCCl)CCCl)cc3)cc(C)nc2c1 with P388 leukemia ip, CD2F1 mice, survival T/C.
(A) 96 % of control

(Q) State measured T/C of the molecule C1=CC=CCC=C1 with P388 leukemia ip, CD2F1 mice, survival T/C.
(A) 120 % of control

(Q) State measured T/C of the molecule COc1ccc2c(c1)C1CCN(C)CC1OC2=O (stereo not drawn) with P388 leukemia ip, CD2F1 mice, survival T/C.
(A) 92 % of control
